Data provenance is PubChem BioAssay (NCI).

Tested on: NCI-H226 lung
method summary: NCI-60 one-dose screen, 48 h
test conditions: 10 µM unless noted
This is part of a sample that, as a whole, favours compounds with a hit. Of some 83,000 tested, about 20% had one in any assay. Calls of active or inactive are those of the source. Rule for the calls: active = growth percent below 10; inactive = the rest.
Valid outcomes are listed here; reply with one: active, inactive

I'd appreciate the recorded outcome for "COc1cccc(-c2c(C#N)c(-c3ccc(Cl)cc3)nc3n[nH]c(-c4ccc(Cl)cc4)c23)c1" from this test.
inactive

Next record, please: "O=c1[nH]c2ccc(Cl)cc2cc1CSc1nccc(-c2ccc(Cl)cc2)n1"
active

Next record, please: "COc1cccc(/C=C/c2nc3ccccc3c(=O)n2CC(=O)Nc2ccc(Cl)cc2)c1"
inactive

Next record, please: "CC(=O)NNc1ccc2nnc(-c3ccccc3)n2n1"
inactive

Next record, please: C=C1CC[C@@H]2[C@]3(C)COC(c4cn[nH]c4-c4ccccc4)O[C@@H]3CC[C@@]2(C)[C@@H]1C/C=C1/C(=O)OCC1O (some centres undefined)
active

Next record, please: "CCCCSc1nc(Nc2ccc(C(C)=O)cc2)c(C#N)c(-c2ccc(OC)cc2)n1"
inactive

Next record, please: "O=C1CCCc2cc(OCC(=O)N3CCCCC3)ccc2N1"
inactive

Next record, please: "CN(C)c1ccnc(CNCCSC2(c3ccc(C(F)(F)F)cc3)c3ccccc3CCc3ccccc32)c1"
active

Next record, please: "Cc1ccc(-c2nc(C#N)c(S(=O)(=O)N3CCN(S(=O)(=O)c4ccc(Cl)cc4)CC3)o2)cc1"
inactive

Next record, please: "C=Cn1cc(C(=O)O)c(=O)c2cc(F)c(N3CCN(c4nccc(-c5nccs5)n4)CC3)cc21"
active

Next record, please: Cc1ccccc1[C@H]1C(C(=O)c2ccc(Cl)cc2)C2(N[C@@H]1c1ccccc1)C(=O)Nc1ccccc12 (some centres undefined)
active

Next record, please: "O=C1NC(=O)/C(=C/c2ccccc2OCc2cc3ccccc3nc2Cl)S1"
inactive

Next record, please: Cc1ccc(C2=NN(c3nc(-c4cc5ccccc5oc4=O)cs3)C(c3ccc(C)cc3)C2)cc1 (centres undefined)
inactive

Next record, please: "O=S(=O)(Nc1cccc(-n2cnc3cc(-c4ccc(O)cc4)ccc32)c1)C1CC1"
inactive

----------
Tested on: K-562 leukemia
method summary: NCI-60 one-dose screen, 48 h (100 = growth as untreated, 0 = no growth, -100 = all killed)
test conditions: 10 µM unless noted
The panel holds about 83,000 compounds, 20% with a hit somewhere; the sample as a whole holds those more often. The source made the active and inactive calls. The calls were made as follows: active = growth percent below 10; inactive = the rest.
Provide the recorded growth for the entries that follow.

Please tell me: growth of "CCCCOc1ccc(NC(=O)c2sc3nc(C)ccc3c2N)cc1" , system K-562 leukemia?
9.87% (active)

Next record, please: "CSc1ccc(C(=O)Nc2ccc3nnn(/C(C#N)=C/c4ccccn4)c3c2)cc1"
-9.85% (active)

Next record, please: "COc1cc(-c2cc(-c3cccc(OCC(=O)O)c3)[nH]c(=O)c2C#N)cc(OC)c1OC"
89.8% (inactive)

Next record, please: C=C1CCC2C3(C)COC(c4ccco4)OC3CCC2(C)C1CC(Sc1ccccc1)C1=CCOC1=O (stereo not given)
18.5% (inactive)

Next record, please: CC1(C)CC[C@]2(C(=O)O)CC[C@]3(C)C(=CCC4[C@@]5(C)C[C@@H](O)[C@@H]6OC(c7ccco7)OC[C@@]6(C)C5CC[C@]43C)C2C1 (stereo not given in full)
21.2% (inactive)

----------
Tested on: NCI-H460 lung
method summary: NCI-60 one-dose screen, 48 h (100 = growth as untreated, 0 = no growth, -100 = all killed)
test conditions: 10 µM unless noted
Description: Growth inhibition of the NCI-H460 human Non-Small Cell Lung tumor cell line is measured as a screen for anti-cancer activity. Cells are grown in 96 well plates and exposed to the test compound for 48 hours. Compounds are tested at a single concentration, which is 10^-5 M for most compounds. The reported endpoint is percent growth (GI% or GIPRCNT), where numbers from 0 - 100% represent growth inhibition, and numbers from -100% - 0 represent cell death. […]
About 83,000 compounds went through this panel and 20% of them were active in at least one assay; those are over-represented in the sample as a whole. The source made the active and inactive calls. How the source made its calls: active means growth percent below 10; inactive means the rest.
Provide the recorded growth for the entries that follow.

For the molecule shown here, "O=C(Nc1cccc(-n2cnc3cc(-c4ccc(O)cc4)ccc32)c1)C1CC1" , give the reported growth.
7.41% (active)

Next record, please: "CN1CCN(c2ccc3c(c2)nc(NNC(=O)c2cnccn2)c2cccn23)CC1"
2.41% (active)

Next record, please: "NS(=O)(=O)c1ccc(CCNC(=O)CSc2ccc(-c3ccc(Br)cc3)nn2)cc1"
51.4% (inactive)

Next record, please: "Cc1cnc(C(=O)NNc2nc3cc(F)ccc3n3c(C(=O)N4CC5CC(C4)N5)ccc23)cn1"
9.91% (active)

Next record, please: "O=C(N/N=C/c1ccc(-c2ccc(O)cc2)o1)c1[nH]c2ccc(Br)cc2c1-c1ccccc1"
-11.3% (active)

Next record, please: "O=C(COc1ccc(NC(=O)Nc2ccc(Cl)cc2)cc1)N/N=C/c1ccccc1"
-79.3% (active)

Next record, please: C=C1CCC2C3(C)COC(c4ccccc4)OC3CCC2(C)C1CC(Sc1ccccc1)C1=CCOC1=O (stereo not drawn)
84.6% (inactive)

Next record, please: C=C1CCC2C3(C)COC(c4ccc(F)cc4)OC3CCC2(C)C1CC(O)C1=CCOC1=O (stereo not drawn)
93.8% (inactive)

----------
System: KM12 colon
method summary: NCI-60 one-dose screen, 48 h (100 = growth as untreated, 0 = no growth, -100 = all killed)
test conditions: 10 µM unless noted
The panel holds about 83,000 compounds, 20% with a hit somewhere; the sample as a whole holds those more often.
Provide the recorded growth for the entries that follow.
Output spec: scalar in %, unitless text.

For the compound shown here, Cc1ccc(NC(=O)[C@]23CCC(C)(C)CC2C2=CCC4[C@@]5(C)C[C@@H](O)[C@H](O)[C@@](C)(CO)C5CC[C@@]4(C)[C@]2(C)CC3)cc1 (stereo partly drawn) , give the reported growth.
-22.3

Next record, please: CCS(=O)(=O)N1CCCC(C(=O)Nc2nc3ccc(NC(=O)c4ccc(F)c(OC)c4F)cc3s2)C1 (stereo not drawn)
61.6

Next record, please: "Cc1ncsc1-c1ccc(CNC(=O)[C@@H]2C[C@@H](O)CN2C(=O)[C@@H](NC(=O)C2(F)CC2)C(C)(C)C)c(OCCOCCOCCOCCOc2nc(Nc3cc(S(C)(=O)=O)ccc3N[C@@H](c3cccc4c3OC(F)(F)O4)c3ncccc3Cl)nc(N3CCNCC3)n2)c1"
71.2

Next record, please: C=C1CCC2C3(C)COC(c4ccccc4F)OC3CCC2(C)C1CC(O)C1=CCOC1=O (stereo not drawn)
45.3

Next record, please: C=C1CC[C@@H]2[C@]3(C)COC(c4ccco4)O[C@@H]3CC[C@@]2(C)[C@@H]1C/C=C1/C(=O)OCC1OC(C)=O (stereo partly drawn)
52.4

Next record, please: "COc1ccc(-c2ccc(SCC(=O)NCCc3ccc(S(N)(=O)=O)cc3)nn2)cc1"
96.3

Next record, please: Cc1cccc(NC(=O)[C@]23CCC(C)(C)CC2C2=CCC4[C@@]5(C)C[C@@H](O)[C@H](O)[C@@](C)(CO)C5CC[C@@]4(C)[C@]2(C)CC3)c1 (stereo partly drawn)
3.56

Next record, please: "CC(C)c1sc(NC(=O)c2cc(NC(=O)c3cc(NC(=O)c4cscn4)cn3C)cn2C)nc1C(=O)NCCCN(C)C"
59.2

----------
Test system: SF-295 CNS
method summary: NCI-60 one-dose screen, 48 h (100 = growth as untreated, 0 = no growth, -100 = all killed)
test conditions: 10 µM unless noted
About 83,000 compounds went through this panel and 20% of them were active in at least one assay; those are over-represented in the sample as a whole.
Provide the recorded growth for the entries that follow.
Output spec: scalar in %, unitless text.

Please tell me: growth of "CSc1ccc(NC(=O)c2ccc3nn(/C(C#N)=C/c4ccccn4)nc3c2)cc1" , system SF-295 CNS?
-95.7

Next record, please: CC1(C)CC[C@]2(C(=O)Nc3ccccc3)CC[C@]3(C)C(=CCC4[C@@]5(C)C[C@@H](O)[C@H](O)[C@@](C)(CO)C5CC[C@]43C)C2C1 (stereo partly drawn)
50.4

Next record, please: "Cc1cc(=O)oc2cc(OCCCCOc3ccc(/C=C/C(=O)Nc4ccccc4N)cc3)ccc12"
63.1

----------
Tested on: K-562 leukemia
method summary: NCI-60 one-dose screen, 48 h (100 = growth as untreated, 0 = no growth, -100 = all killed)
test conditions: 10 µM unless noted
About 83,000 compounds went through this panel and 20% of them were active in at least one assay; those are over-represented in the sample as a whole.
With a cut-off of 20%, any growth strictly below it is called t; any growth meeting it or above is called f.

Take the compound "N#Cc1c(-c2cccc(Cl)c2Cl)cc(-c2c[nH]c3ccccc23)[nH]c1=O" and say whether its growth is less than 20%.
f

Next record, please: "O=C(CN1C(=O)/C(=C/c2ccccc2F)SC1=S)N1CCOCC1"
t

Next record, please: "Cn1cc(-c2nnc(N)nc2-c2c[nH]c3ccc(F)cc23)c2cccnc21"
t

Next record, please: COc1ccc(N2N=C(c3ccc4c(c3)OCO4)CC2c2cccc(NC(=O)CCCNS(=O)(=O)c3ccc(F)cc3)c2)cc1 (stereo unspecified)
f

Next record, please: CC(=O)Oc1ccc(/C=C/C(=O)N[C@@H](Cc2ccccc2)C(O)C(=O)NCc2ccccc2)cc1OC(C)=O (stereo partly specified)
f

Next record, please: "Cc1cc2c(cc1Cl)C(=O)/C(=C/c1ccc(F)cc1)O2"
f

Next record, please: "COc1ccc2[nH]c(=O)c(CSc3nccc(-c4ccc(OC)c(OC)c4)n3)cc2c1"
t

Next record, please: "N/C(=N\c1nc2ccccc2s1)NC(=O)NCCCCCCO"
f

Next record, please: COc1ccc2oc(=O)c(C3(C)NC(=O)c4c(/C=C/C(=O)OC(C)(C)C)cccc4N3)cc2c1 (stereo unspecified)
f

Next record, please: "CCC(C)(C)c1ccc(OCCCCCCN2CCN(c3ccncc3)CC2)cc1"
t

Next record, please: "Clc1cccc(N/N=C/c2c[nH]c3ccc(Br)cc23)n1"
t

Next record, please: "COc1ccc2[nH]cc(-c3nc(N)nnc3-c3cn(C)c4ncccc34)c2c1"
f

Next record, please: "COc1cc2oc(-c3cccc(NC(=O)[C@H](CC(N)=O)NC(=O)OC(C)(C)C)c3)cc(=O)c2c(OC)c1OC"
f

Next record, please: O=C(/C=C/c1ccc(O)c(O)c1)NC1CCOC1O (stereo unspecified)
f

Next record, please: CC1(c2cc3cc(Cl)ccc3oc2=O)NC(=O)c2c(/C=C/C(=O)OC3CC4CCC3(C)C4(C)C)cccc2N1 (stereo unspecified)
f

Next record, please: "Cc1ccc(/C=C/c2n(Cc3ccc4ccccc4c3)c3ccccc3[n+]2Cc2ccc3ccccc3c2)cc1"
t

Next record, please: "Nc1nnc(-c2c[nH]c3ccc(Br)cc23)c(-c2c[nH]c3ncc(Br)cc23)n1"
t

Next record, please: "O=C1c2c(c3c4cc(F)ccc4oc3c3[nH]c4ccc(Br)cc4c23)C(=O)N1O"
f

Next record, please: "S=C(Nc1ccc(OCc2nc3ccccc3[nH]2)cc1)NC1CCCCC1"
f

Next record, please: "COc1ccc(-c2ccc(SCC(=O)Nc3ccc(S(N)(=O)=O)cc3Br)nn2)cc1"
f

Next record, please: "COc1ccc(C(=O)/C=C/c2ccc(OCc3ccc(F)cc3)c(OC)c2)cc1OC"
t
